# protocol description: Pharmacokinetics in BALB/C nude mice after intragastric administration
# Assay type: in vivo
# condition details: female, mouse, plasma, po, 30 mg/kg, read-out: Area under curve AUC
assay endpoint: AUC

O=C(/C=C/CNC1(COc2ccc(/C(=C(/CC(F)(F)F)c3ccccc3)c3ccc4[nH]nc(F)c4c3)cn2)CC1)N1CCOCC1 [Example 1] ... 9850 ng·h/mL

Dear colleague, could you send me AUC for each of the items below? Thanks.
1. O=C(/C=C/CN1CCC[C@@H](Oc2ccc(/C(=C(/CC(F)(F)F)c3ccccc3)c3ccc4[nH]nc(F)c4c3)cn2)C1)N1CCCC1 [Example 15]
2. O=C(/C=C/CNC1(COc2ccc(/C(=C(/CC(F)(F)F)c3ccccc3)c3ccc4[nH]nc(F)c4c3)cn2)CC1)N1CCO[C@@H](CO)C1 [Example 42]
3. O=C(/C=C/CNC1(COc2ccc(/C(=C(/CC(F)(F)F)c3ccccc3)c3ccc4[nH]nc(F)c4c3)cn2)CC1)N1CC[C@H](O)C1 [Example 41]
4. O=C(/C=C/CNC1(COc2ccc(/C(=C(/CC(F)(F)F)c3ccccc3)c3ccc4[nH]nc(F)c4c3)cn2)CC1)N1CC(O)C1 [Example 40]

1. 6560 ng·h/mL
2. 4510 ng·h/mL
3. 5020 ng·h/mL
4. 11900 ng·h/mL

Need AUC of CN(C)C(=O)/C=C/CNC1(COc2ccc(/C(=C(/CC(F)(F)F)c3ccccc3)c3ccc4[nH]nc(F)c4c3)cn2)CC1 [Example 39] , thanks.
16500 ng·h/mL
